assay: yeast display, Sf9 membrane polyspecificity reagent, FACS + sequencing; frameworks hold sequencing errors
Endpoint: polyreactivity (PSR sort gate)

[[record]]
input_sequence = "QVQLVESGGGLVQAGGSLRLSCAASGITFPYYTMGWYRQAPGKERELVATIRNGGSTYYADSVKGRFTISRDNAKNTVYLQMNSMKPEDTAVYYCAAVPLWDYKFFYYLLYDYWGQGTQVTVSS"
reported = "low polyreactivity"

[[record]]
input_sequence = "QVQLVESGGGLVQAGGSLRLSCAASGSTFRFNAMGWYRQAPGKERELVATISYSSDSTYYAYSVKVRFTISRDNAKNTVYLQMNSLKPEDTAVYYCAADSGYARFDYWGQGTQVTVSS"
reported = "high polyreactivity"

[[record]]
input_sequence = "QVQLEESGGGLVQAGGSLRLTCAGSGSISYRYDMGWYRQATGKEMELVAVITGSGGSTYYADSVKGRFTISRDNAKNTVYLQMNSLKPEDTAVYYCANEPGENWTVSWRDFDFWGQGTQVTVSS"
reported = "low polyreactivity"

[[record]]
input_sequence = "QVQLVESGGGLVQAGGSLRLSCAASGYTFYRYAMGWYRQAPGKERELVAGISRDGGSTYYADSVKGRFTISRDNAKNTVYLQMNSLKPEDTAVYYCAADKTRYRLGRDYWGQGTQVTVSS"
reported = "low polyreactivity"

[[record]]
input_sequence = "QVQLVESGGGLVQAGGSLRISCAASGFIFIAYAMGWYRQAPGKERELVAAISKSGGNTYYADSVKGRFTISRDNAKNTVYLQMNSLKPEDTAVYYCATRPCYWRYEYWGQGTQVTVSA"
reported = "high polyreactivity"

[[record]]
input_sequence = "QVQLVESGGGLVQAGGSLRLSCAASGFTFYRYTMGWYRQAPGKERELFAAISARGVSTYYADSVKGRFTISRDNAKNTVYLQMNSLKPEDTAVYYCYVSRYDTWGQGTQVTVTS"
reported = "high polyreactivity"

[[record]]
input_sequence = "QVQLVESGGGLVQAGGSLRLSCAASGRIFTNYAMGWYRPAPGKEREYVAAISWSGGSTYYADSVKGRFTISRDNAKNTVYLQMNSLKPEYTAVYYCAAVGYAGLPYGLRPNNSGYWGQGTQVTVSS"
reported = "low polyreactivity"

[[record]]
input_sequence = "QVQLVESGGCLVQARGTLRLSCASSGRTIYLYAMPWYRQAPAKERELVAAITKSGGSTYYADSVKGRFTISRDIAMNTVYVQMNSLKPQDTAFYYCYKDLSSTNLDYWGQGTQFTVSS"
reported = "low polyreactivity"

[[record]]
input_sequence = "QVQLVESGGGLVQAGGSLSLSCAATGRTFVKNAMGWYRQAPGKERELVASISRSGGSTYYADSVKGRFTISRDTAKNTVYLQMNSLKTEDTAVYYCNAAVYGGYSRSRYGYWGQGTQVTVSS"
reported = "high polyreactivity"

[[record]]
input_sequence = "QVQLVESGGGLVQAGGSLRLSCAASGLIYFYYDMGWYRQAPGKERELVAAISQRGGSTYYADSVKGRFTISRDNAKNTVYLQMNSLKPEDTAVYYCNAYSQRYGYYYWGQGTQVTVSS"
reported = "high polyreactivity"

[[record]]
input_sequence = "QVQLVESGGGLVQAGGSLRLSCAASGFIFKYYAMGWYRHAPGKERELVAAISRRGGSTFYADSVKGRFTISRDNAKNTVYLQMNSLKPEDTAVYYCAKYPQTLPIDVWTWIHDYWGQGTQVTVSS"
reported = "high polyreactivity"

[[record]]
input_sequence = "QVQLVESGGGLVQAGGSLRLTCAASGSIIALYAMGWYRQAPGKERELVATISSCVSTYYADSVKGRFTISRDNAKNTVYLQLNSLKPEDTAVYYCAADKTVRSSNYDYWGQCTQVTVSS"
reported = "low polyreactivity"

[[record]]
input_sequence = "QVQLVESGGGLVQAGGSLRLSCAASGRTFVPYAMGWYRQAPGKEREFVAAISSRVGSTYYADSVKGRFTISRDNAKNTVYLQMNSLKPEDTAVYYCNAPFKPAGFYSAWKYDYWGQGTQVTVSS"
reported = "low polyreactivity"

[[record]]
input_sequence = "QVQLVESGVGLVQAGGSLRLSCAASGGNFWSYPMGLYRQAPGKEREYVAAITTSAGRTNYADSVKGRFTISRDNAKNSVYLQMNSLKPEDTAVYYCAARSAYPGLGYGFDYWGQGTQVTVSS"
reported = "low polyreactivity"

[[record]]
input_sequence = "QVQLVESAGGLVQARGSLRLSCAASGRIFDVNAMGWYRQAPGKERELVAAISSGGNTKYADSVKGRFTISRDNAKNTVYLQMNSLKPEDTAVYYCNADGKAGGDSDYWGQGTQVTVSS"
reported = "low polyreactivity"

[[record]]
input_sequence = "QVQLVETGGGLVQAGGSLRLSCAASVIISSVYAMGWYRQAPGNERELVAAISGSGGSTYYADSVKGRFTISRDNAKNTVYLQMISLKPEDTAVYYCAKGYQYQGNSYGYWGQGTQVTVSS"
reported = "low polyreactivity"

[[record]]
input_sequence = "QVQLVESGGGLVQAGGSLRLSCAASGLIFTPYAMGWYRQAPGKERELVAAISVSGGRTYYADSVKGRFTISRDNAKNTVYLQMNSLKPEDTAVYYCAASDRYGGRDYWGQGTQVTVSS"
reported = "high polyreactivity"

[[record]]
input_sequence = "QVQLVESGGGLVQAGGSLRISCAAYGSTIVTNAMGWYRQAPVKERELVAASTSGAGTYYADSVKGRFTISRDNAKNTVYLQMNCLKTEDTAVYYCAARRYYSSGRYRFGYWGQGSQVTVSS"
reported = "high polyreactivity"

[[record]]
input_sequence = "QVQLVESGGGLVQAGGILRLSCAASGRIFSRYAMGWYRQAPGKERELVAAISSSGTTTYYADSVKARFTISRDNAKNTVYLQMNSLKPEDTAVYYCAVEDRWYGPGYEYWGQGTQVTVSS"
reported = "high polyreactivity"

[[record]]
input_sequence = "QVQLVESGGGLVQAGGSLRVSCAPSGGTFGYYTMGWYRQAPGTERELVAAISSGGGTDYADSVKGRFTISRDNAKNTVYLQMNSLKPEDTAVYYCNAKWLELHYVFLPSYTMDYWGHGTQVTVSS"
reported = "low polyreactivity"

[[record]]
input_sequence = "QVQLVESGGGLVQAGGSLRLSCPASGTLTVNTMGWYRQAPGKERELVAAISTGDTTTYADSVKGRFTISRDNAKNTVYVQMNSLKPEDTAVYYCNVDIGVYAYESDYWGQGSQVTVSS"
reported = "low polyreactivity"


Measured values drawn from the nanobody polyreactivity screen of Harvey et al. (2022) for this set.
